// data source = patent US10765638B2

system: LC-1F; assay: Lung cancer cell line viability screen; format: cell-based; conditions: NSCLC, read-out: NGI-1 (IC50)
Assay Readout: IC50 (µM)
Numbers only here, please. The scale is µM.

[ask] Name the recorded IC50 for "Cc1cnc(NC(=O)c2cc(S(=O)(=O)N(C)C)ccc2N2CCCC2)s1" .
[reply] 7.94

###

tested on: RERF-LC-MS; experiment: Lung cancer cell line viability screen; format: cell-based; settings: NSCLC, read-out: NGI-1 (IC50)
Assay Readout: IC50 (µM)
Numbers only here, please. The scale is µM.

[ask] Name the recorded IC50 for "Cc1cnc(NC(=O)c2cc(S(=O)(=O)N(C)C)ccc2N2CCCC2)s1" .
[reply] 8.07
